- assay method text: Log D, shake flask method
- Type: physicochemical
- conditions: n-octanol/PBS
- Method: PBS buffer (0.01 M) and n-octanol were presaturated with each other overnight before the measurement. The PDE7 ligand [^18F]7, PBS (0.01 M, 5 mL), and n-octanol (5 mL) were combined and vortexed for 3 min, and then centrifuged (∼14 000 rpm, 5 min). The PBS fraction and n-octanol fraction were weighted and counted by γ counter. The log D was calculated as log[(radioactivityn-octanol/weightn-octanol)/(radioactivityPBS/weightPBS)].
readout type: logD

- O=C1Nc2c(Cl)ccc(Oc3c(F)cccc3C(=O)N3CC(F)C3)c2C2(CCCCC2)O1: 3.27

###

Readings of Inhibiton at 0.5 nM for the listed compounds
- System: PDE7
- assay method text: Phosphodiesterase 7 inhibition assay (Eurofins)
- Type: biochemical
- conditions: PDE7, 0.5 nM
readout type: Inhibiton at 0.5 nM

* O=C1Nc2c(Cl)ccc(Oc3c(F)cccc3C(=O)N3CC(F)C3)c2C2(CCCCC2)O1 | 51%
* CN(C)C(=O)c1cccc(F)c1Oc1ccc(Cl)c2c1C1(CCCCC1)OC(=O)N2 | 50%
* CN(C)C(=O)c1cc(F)ccc1Oc1ccc(Cl)c2c1C1(CCCCC1)OC(=O)N2 | -17%
* O=C1Nc2c(Cl)ccc(Oc3c(F)cccc3C(=O)N3CCC3)c2C2(CCCCC2)O1 | 68%

###

Readings of Inhibiton at 0.5 nM for the listed compounds
- Tested on: PDE7
- assay method text: Phosphodiesterase 7 inhibition assay (Eurofins)
- Format: biochemical
- conditions: PDE7, 0.5 nM
readout type: Inhibiton at 0.5 nM (%)

- CN(C(=O)c1cccc(F)c1Oc1ccc(Cl)c2c1C1(CCCCC1)OC(=O)N2)C1CC1: -13
- CN(C)C(=O)c1c(F)cccc1Oc1ccc(Cl)c2c1C1(CCCCC1)OC(=O)N2: -10
- CN(C)C(=O)c1ccc(F)cc1Oc1ccc(Cl)c2c1C1(CCCCC1)OC(=O)N2: 6

###

- target entity: PDE7
- assay method text: Phosphodiesterase 7 inhibition assay (Eurofins)
- Format: biochemical
Readings of IC50 for the listed compounds
readout type: IC50 (pM)

• O=C1Nc2c(Cl)ccc(Oc3c(F)cccc3C(=O)N3CC(F)C3)c2C2(CCCCC2)O1 [Compound 7] = 180
• CN(C)C(=O)c1cccc(F)c1Oc1ccc(Cl)c2c1C1(CCCCC1)OC(=O)N2 [Compound 1] = 410
• O=C1Nc2c(Cl)ccc(Oc3c(F)cccc3C(=O)N3CCC3)c2C2(CCCCC2)O1 [Compound 5] = 40
• O=C1Nc2c(Cl)ccc(Oc3c(F)cccc3C(=O)N3CC([18F])C3)c2C2(CCCCC2)O1 [[^18F]7] = 180

###

- target entity: Sigma1 (Homo sapiens, UniProt Q99720)
- Sequence (Q99720 whole entry): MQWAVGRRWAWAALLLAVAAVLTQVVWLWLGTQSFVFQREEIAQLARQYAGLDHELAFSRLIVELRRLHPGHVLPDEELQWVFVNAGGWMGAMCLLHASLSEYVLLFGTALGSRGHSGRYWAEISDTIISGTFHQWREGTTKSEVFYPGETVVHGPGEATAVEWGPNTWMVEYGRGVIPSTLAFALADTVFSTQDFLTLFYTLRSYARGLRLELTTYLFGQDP
- assay method text: Off-target binding: Sigma1
pKi: −log10 of the molar value.
readout type: pKi

• O=C1Nc2c(Cl)ccc(Oc3c(F)cccc3C(=O)N3CC(F)C3)c2C2(CCCCC2)O1 = 5.13
